Tested on: SW-620 colon
Assay: NCI-60 one-dose screen, 48 h (100 = growth as untreated, 0 = no growth, -100 = all killed)
Details: 10 µM
This is part of a sample that, as a whole, favours compounds with a hit. Of some 83,000 tested, about 20% had one in any assay.
ASSAY_ENDPOINT: growth (%)
Just the number please, in %, no unit attached.

Worked examples, 8 compounds total:
Nc1n[nH]c2cccc(C#Cc3cccc(NC(=O)Nc4cc(C(F)(F)F)cc(C(F)(F)F)c4)c3)c12 = -75.7
CC(=O)Nc1nc(-c2ccc(N3CCN(C)CC3)c(NS(=O)(=O)c3cccc4c(N(C)C)cccc34)c2)cs1 = 70.9
O=C1NC(=NC23CC4CC(CC(C4)C2)C3)N/C1=C\c1ccc2ncsc2c1 = 5.03
Cn1cc(-c2cc(N)n3nc(-c4c[nH]c5ccc(Br)cc45)cc3n2)c2cccnc21 = -78.6
COC1=C[C@]23CCC(=O)N2CCc2cc4c(cc2[C@@H]3[C@@H]1OC(=O)CCCC(C)C)OCO4 = 63
O=C1Nc2ccc(Cl)cc2/C1=C/c1cccc(OCc2ccccc2)c1 = 45.4
C=C(C)[C@@H]1CC[C@]2(C)[C@H](CC=C3[C@@H]4CC(C)(C)CC[C@]4(C(=O)N4CCOCC4)CC[C@]32C)[C@@]1(C)CCCN = -65.1
COc1cc(/C=C/C(=O)c2ccc(NC(=O)CN3C(=O)NC(C)(c4ccccc4)C3=O)cc2)cc(OC)c1OC (centres undefined) = 8.07

Exercise: Entry `Cc1noc2c(Cc3ccccc3)nn(CC(=O)N/N=C/c3ccc(F)cc3)c(=O)c12` has what growth?
Solution: 79.9

Exercise: Entry `N#Cc1c(-c2ccc(F)cc2)nc(SCc2ccc(F)cc2)nc1N1CCOCC1` has what growth?
Solution: 85.5

###

Tested on: MDA-MB-435 melanoma
Experiment: NCI-60 one-dose screen, 48 h (100 = growth as untreated, 0 = no growth, -100 = all killed)
Details: 10 µM
About 83,000 compounds went through this panel and 20% of them were active in at least one assay; those are over-represented in the sample as a whole.
ASSAY_ENDPOINT: growth (%)
Just the number please, in %, no unit attached.

CC1(C)CC[C@]2(C(=O)NCCCNCCCCNCCCN)CC[C@]3(C)C(=CC[C@@H]4[C@@]5(C)Cc6c([nH]c7ccccc67)C(C)(C)[C@@H]5CC[C@]43C)[C@H]2C1 = 106

Exercise: Entry `O=C1Nc2ccc(Cl)cc2/C1=C/c1ccc(OCc2ccccn2)cc1` has what growth?
Solution: 76.9

Exercise: Entry COc1cc(C2CC(c3ccccc3)=Nc3c(N)nc(N)nc3N2)ccc1Oc1nc(Nc2ccc(F)cc2)nc(N(C)C)n1 (centres undefined) has what growth?
Solution: 15.4

Exercise: Entry `CN(CCF)c1ccc(/C=C/C(=O)c2ccc(N)cc2O)cc1` has what growth?
Solution: 81.8

###

Test system: OVCAR-4 ovarian
Assay: NCI-60 one-dose screen, 48 h
Conditions: 10 µM
Compounds without any hit were thinned out: in the full panel of roughly 83,000, 20% have a hit. Active and inactive are the calls of the source. The calls were made as follows: active = growth percent below 10; inactive = the rest.
Hi! Could you answer with just one of these? y = active, n = inactive

N#Cc1c(NC(=O)c2ccc(C(F)(F)F)cc2C(F)(F)F)sc2c1CCC(=O)C2 = y
O=C(c1ccc(Cl)cc1)C1[C@H](c2ccc(Br)cc2)[C@@H](c2ccccc2)NC12C(=O)Nc1ccc(Cl)cc12 (some centres undefined) = y
CCOP(=O)(OCC)O[C@H]1CCC(=O)[C@@H]2[C@H]1[C@H]1C[C@@H]3[C@@]4(C)CCCC(C)(C(=O)OC)[C@@H]4CC[C@@]23C=C1C(C)C (some centres undefined) = n

Now for a further compound.
Exercise: // param item: `O=c1c2ccccc2nc(COc2ccccc2)n1/N=C/c1ccc(N2CCCC2)cc1` ; yields the recorded call
Solution: n

###

Test system: NCI-H522 lung
Assay: NCI-60 one-dose screen, 48 h (100 = growth as untreated, 0 = no growth, -100 = all killed)
Details: 10 µM
About 83,000 compounds went through this panel and 20% of them were active in at least one assay; those are over-represented in the sample as a whole.
ASSAY_ENDPOINT: growth (%)
Just the number please, in %, no unit attached.

O=C(Nc1cccc(C(F)(F)F)c1)c1cncc(C#Cc2cnc3cccnn23)c1 = 54.9
CCCn1c(=O)c2[nH]c(-c3ccc(OCc4nc5ccc(C(F)(F)F)cc5[nH]4)cc3)nc2n(CCC)c1=O = 23.6
O=C(c1ccc(Cl)cc1)C1[C@H](c2ccccc2Br)[C@@H](c2ccccc2)NC12C(=O)Nc1ccccc12 (some centres undefined) = -3.71
O=C(c1ccc(-n2c(=O)[nH]c3ccccc3c2=O)cc1)N1CCOCC1 = 101
CCN1CCN(Cc2ccc(C(=O)Nc3cccc(-c4cn(-c5ccc6oc(=O)ccc6c5)nn4)c3)cc2C(F)(F)F)CC1 = -100
COc1ccc(-c2nc(S(=O)(=O)c3ccccc3)c(S(C)(=O)=O)o2)cc1 = -97.2
Cc1cc2c(c(O)c1Br)-c1ncoc1C(=O)[C@]1(C)CC[C@H](C(C)C)[C@H]21 = -20.6
COc1csc(/C=N/NC(=O)c2[nH]c3ccc(Br)cc3c2-c2ccccc2)c1 = -48.5

Exercise: Entry `O=c1cc(-c2ccccc2)oc2cc(OCCCNCc3ccccc3)cc(O)c12` has what growth?
Solution: -62.6

###

Quick reference: growth of the listed items.
Tested on: OVCAR-4 ovarian
Assay: NCI-60 one-dose screen, 48 h (100 = growth as untreated, 0 = no growth, -100 = all killed)
Conditions: 10 µM
About 83,000 compounds went through this panel and 20% of them were active in at least one assay; those are over-represented in the sample as a whole.
Just the number please, in %, no unit attached.

Worked examples, 2 compounds total:
COc1ccc(C(=O)Nc2ccc(-c3ccc4c(c3)NC(=O)/C4=C\c3ccc[nH]3)cc2)cc1 = -36.8
COc1ccc2[nH]c(O)c(N=NC(=O)COc3ccc(NC(=O)Nc4ccc(Cl)c(Cl)c4)cc3)c2c1 = -92.7

Exercise: Entry `CN1CCN(Cc2ccc(NC(=O)c3cncc(C#Cc4cnc5ccc(N[C@H]6CCOC6)nn45)c3)cc2C(F)(F)F)CC1` has what growth?
Solution: -65.3

Exercise: Entry `COc1ccc(-c2c(N)c(=O)n(C)c3ccccc23)cc1` has what growth?
Solution: 56.5

###

Tested on: MOLT-4 leukemia
Test: NCI-60 one-dose screen, 48 h (100 = growth as untreated, 0 = no growth, -100 = all killed)
Conditions: 10 µM
Compounds without any hit were thinned out: in the full panel of roughly 83,000, 20% have a hit. Calls of active or inactive are those of the source. How the source made its calls: active means growth percent below 10; inactive means the rest.
Quick reference: growth of the listed items.

CC(C)C1=C[C@@]23CC[C@@H]4[C@](C)(CCC[C@]4(C)C(=O)NCc4ccccc4)[C@H]2C[C@@H]1[C@H]1C(=O)OC(=O)[C@H]13 = 15.5% (inactive)
Cc1cc(=O)oc2cc(OCCCCOc3ccc(/C=C/C(=O)Nc4cccc(Cl)c4)cc3)ccc12 = 80.6% (inactive)
N#C/C(=C\c1ccc(N(c2ccccc2)c2ccccc2)cc1)C(N)=O = 56% (inactive)
CC[C@]12C=CCN3CC[C@@]4(c5cc(C#CCNc6ccc(C)c(Nc7nccc(-c8cccnc8)n7)c6)c(OC)cc5N(C)[C@H]4[C@@](O)(C(=O)OC)[C@@H]1OC(C)=O)C32 (stereo partly drawn) = 37.9% (inactive)
O=C(Cn1nc(-c2ccccc2)ccc1=O)NNC(=S)NC1CCCCC1 = 106% (inactive)

Exercise: Requested read-out growth, target or system MOLT-4 leukemia, entry `COc1cccc(/C=C2\N=C(C)N(CCc3ccc(S(N)(=O)=O)cc3)C2=O)c1`
Solution: 97.8% (inactive)

Exercise: Requested read-out growth, target or system MOLT-4 leukemia, entry `N#Cc1ccc(-c2nn(-c3ccc(C(=O)O)cc3)cc2CNc2cc(Cl)cc(Cl)c2)cc1`
Solution: 15.8% (inactive)

Exercise: Requested read-out growth, target or system MOLT-4 leukemia, entry `CCCn1c(=O)c2[nH]c(-c3ccc(OCc4nc5ccc(C)cc5[nH]4)cc3)nc2n(CCC)c1=O`
Solution: 15.2% (inactive)

###

System: HCC-2998 colon
Experiment: NCI-60 one-dose screen, 48 h (100 = growth as untreated, 0 = no growth, -100 = all killed)
Settings: 10 µM
Method: Growth inhibition of the HCC-2998 human tumor cell line is measured as a screen for anti-cancer activity. Cells are grown in 96 well plates and exposed to the test compound for 48 hours. Compounds are tested at a single concentration, which is 10^-5 M for most compounds. The reported endpoint is percent growth (GI% or GIPRCNT), where numbers from 0 - 100% represent growth inhibition, and numbers from -100% - 0 represent cell death. For example, a value of 40 represents 60% growth inhibition. […]
Compounds without any hit were thinned out: in the full panel of roughly 83,000, 20% have a hit.
Lab note: compare growth with 30%, writing Y if less and N if equal or more.

Recorded results for 2 compounds are shown here.
O=C(CSc1nnc(-c2c[nH]c3ccccc23)n1-c1ccccc1)Nc1ccc(C(=O)/C=C/c2cccc([N+](=O)[O-])c2)cc1 = N
C#CCNC(=O)CCC(=O)OC[C@]12CC[C@@H](C(=C)C)[C@@H]1C1CC[C@@H]3[C@@]4(C)CCCNC(C)(C)[C@@H]4CC[C@@]3(C)[C@]1(C)CC2 (stereo partly drawn) = Y

Exercise: Regarding `CC(=O)c1cc(C(=O)N2c3ccccc3Sc3ccccc32)n2ccc(C)cc12` , kindly confirm whether its growth is beneath 30%.
Solution: N

Exercise: Regarding `CN1CCO/C1=C(/NC(=O)c1ccc(Cl)cc1)[P+](c1ccccc1)(c1ccccc1)c1ccccc1` , kindly confirm whether its growth is beneath 30%.
Solution: N

Exercise: Regarding `Nc1nnc(-c2c[nH]c3ncccc23)c(-c2c[nH]c3ccc(Br)cc23)n1` , kindly confirm whether its growth is beneath 30%.
Solution: N

Exercise: Regarding `NS(=O)(=O)c1ccc(NC(=O)CSc2ccc(-c3ccc(Cl)cc3)nn2)c(Br)c1` , kindly confirm whether its growth is beneath 30%.
Solution: N

Exercise: Regarding `Cc1ccc(C(=O)CSc2nnc(-c3c[nH]c4ccccc34)n2-c2ccccc2)cc1` , kindly confirm whether its growth is beneath 30%.
Solution: N

Exercise: Regarding `C=C(C)[C@@H]1CC[C@]2(C)[C@H](CC=C3[C@@H]4CC(C)(C)CC[C@]4(C(=O)N4CCOCC4)CC[C@]32C)[C@@]1(C)CCCN` , kindly confirm whether its growth is beneath 30%.
Solution: Y

Exercise: Regarding `O=C(CNc1nc(-c2ccccc2)cs1)Nc1ccc(Cl)cc1` , kindly confirm whether its growth is beneath 30%.
Solution: Y

Exercise: Regarding `Nc1nc(Nc2ccc(Cl)cc2)n(Cc2cccc(Br)c2)n1` , kindly confirm whether its growth is beneath 30%.
Solution: Y

Exercise: Regarding `Cc1ccc2nc3c(nc2c1)c1cc(I)ccc1n3CCN(C)C` , kindly confirm whether its growth is beneath 30%.
Solution: Y

Exercise: Regarding `CC1=C2C(=C[C@@](C)(CO)[C@@H]2O)/C(=N\N)[C@](C)(O)C12CC2` , kindly confirm whether its growth is beneath 30%.
Solution: Y

Exercise: Regarding `COC(=O)C[C@](O)(CCCC(C)(C)O)C(=O)O[C@H]1C(OC)=C[C@@]23CCC(=O)N2CCc2cc4c(cc2[C@@H]13)OCO4` , kindly confirm whether its growth is beneath 30%.
Solution: N

Exercise: Regarding `O=c1[nH]c2ccc(Cl)cc2cc1CSc1ccc(Nc2nccc(-c3ccc(Cl)cc3)n2)cc1` , kindly confirm whether its growth is beneath 30%.
Solution: N

Exercise: Regarding `CC(=O)Nc1ccc(-n2cnc3cc(-c4ccc(O)cc4)ccc32)cc1F` , kindly confirm whether its growth is beneath 30%.
Solution: N

Exercise: Regarding COc1cc(/C=C/C(=O)c2ccc(NC(=O)CN3C(=O)NC(C)(c4ccccc4)C3=O)cc2)cc(OC)c1OC (stereo not drawn) , kindly confirm whether its growth is beneath 30%.
Solution: Y

Exercise: Regarding `COc1ccc2[nH]c(=O)c(CSc3ccc(Nc4nccc(-c5ccc(Cl)cc5)n4)cc3)cc2c1` , kindly confirm whether its growth is beneath 30%.
Solution: N

Exercise: Regarding `CC(C)C1=C[C@@]23CC[C@@H]4[C@](C)(CCC[C@]4(C)C(=O)NCc4ccccc4)[C@H]2C[C@@H]1[C@H]1C(=O)OC(=O)[C@H]13` , kindly confirm whether its growth is beneath 30%.
Solution: N

Where do the numbers come from? From PubChem BioAssay (NCI).
